# Assay summary: in vitro
# Condition: human, microsomes
Metric: CLint scaled at 1 µM (mL/min/kg)
Give bare numbers, in mL/min/kg.

In: Specify CLint scaled at 1 µM for O=c1ccc2ccc(O)cc2o1 [7-hydroxycoumarin] and stop.
Out: 774

* * *

# Assay summary: in vitro
# Condition: mouse
Metric: CLint scaled at 1 µM (mL/min/kg)
Numbers only, in mL/min/kg.

In: Specify CLint scaled at 1 µM for O=c1ccc2ccc(O)cc2o1 [7-hydroxycoumarin] and stop.
Out: 87.8

* * *

# Assay summary: in vitro
# Condition: monkey, microsomes
Metric: half-life at 1 µM (min)
Numbers only, in min.

In: Specify half-life at 1 µM for O=c1ccc2ccc(O)cc2o1 [7-hydroxycoumarin] and stop.
Out: 1.72

* * *

# Assay summary: in vitro
# Condition: human, microsomes
Metric: half-life at 1 µM (min)
Give bare numbers, in min.

In: Specify half-life at 1 µM for O=c1ccc2ccc(O)cc2o1 [7-hydroxycoumarin] and stop.
Out: 2.25

* * *

# Assay summary: Hepatic microsomal metabolic stability
# Condition: monkey, microsomes
Metric: microsomal CLint at 1 µM (µL/min/mg)
Numbers only, in µL/min/mg.

In: Specify microsomal CLint at 1 µM for Cc1c(-c2ccc(N3CCc4cccc(C(=O)Nc5nc6ccccc6s5)c4C3)nc2C(=O)OCc2ccc(O[C@@H]3O[C@H](CO)[C@H](O)[C@H](O)[C@H]3O)c([N+](=O)[O-])c2)cnn1CC12CC3CC(CC(C3)C1)C2 [A13bGa1] and stop.
Out: 65.3

* * *

# Assay summary: in vitro
# Condition: dog, microsomes
Metric: CLint scaled at 1 µM
Write the figure, then the unit, nothing else.

In: Specify CLint scaled at 1 µM for O=c1ccc2ccc(O)cc2o1 [7-hydroxycoumarin] and stop.
Out: 2050 mL/min/kg

* * *

# Assay summary: in vitro
# Condition: mouse, microsomes
Metric: half-life at 1 µM

In: Specify half-life at 1 µM for O=c1ccc2ccc(O)cc2o1 [7-hydroxycoumarin] and stop.
Out: 1.68 min

* * *

# Assay summary: in vitro
# Condition: dog, microsomes
Metric: microsomal CLint at 1 µM (µL/min/mg)
Give bare numbers, in µL/min/mg.

In: Specify microsomal CLint at 1 µM for O=c1ccc2ccc(O)cc2o1 [7-hydroxycoumarin] and stop.
Out: 824

* * *

# Assay summary: Hepatic microsomal metabolic stability
# Condition: mouse, microsomes
# Protocol: […] Samples were taken and analyzed at time points 0, 15, 30, 45 and 60 minutes during the incubation. The reaction was terminated by adding an amount of acetonitrile solution containing the internal standard. […] The residual percentage, half-life, intrinsic clearance, amplified clearance, hepatic clearance and hepatic extraction ratio were determined. The entire experiment was performed in triplicate. […] Peak areas were detected by extracting the ionic spectrum. […]
Metric: CLint scaled at 1 µM (mL/min/kg)
Answers are plain numbers, in mL/min/kg.

Cc1c(-c2ccc(N3CCc4cccc(C(=O)Nc5nc6ccccc6s5)c4C3)nc2C(=O)OCc2ccc(O[C@@H]3O[C@H](CO)[C@H](O)[C@H](O)[C@H]3O)c([N+](=O)[O-])c2)cnn1CC12CC3CC(CC(C3)C1)C2 : 36.2

Let's switch to this molecule now.
In: Specify CLint scaled at 1 µM for O=c1ccc2ccc(O)cc2o1 [7-hydroxycoumarin] and stop.
Out: 3630

* * *

# Assay summary: in vitro
# Condition: rat
Metric: CLint scaled at 1 µM (mL/min/kg)
Give bare numbers, in mL/min/kg.

In: Specify CLint scaled at 1 µM for O=c1ccc2ccc(O)cc2o1 [7-hydroxycoumarin] and stop.
Out: 52.3
